# TARGET ENTITY: PSMA (Homo sapiens, UniProt Q04609)
# Construct: host or cells: 22Rv1 human prostate cancer cells
# Sequence (Q04609 whole entry): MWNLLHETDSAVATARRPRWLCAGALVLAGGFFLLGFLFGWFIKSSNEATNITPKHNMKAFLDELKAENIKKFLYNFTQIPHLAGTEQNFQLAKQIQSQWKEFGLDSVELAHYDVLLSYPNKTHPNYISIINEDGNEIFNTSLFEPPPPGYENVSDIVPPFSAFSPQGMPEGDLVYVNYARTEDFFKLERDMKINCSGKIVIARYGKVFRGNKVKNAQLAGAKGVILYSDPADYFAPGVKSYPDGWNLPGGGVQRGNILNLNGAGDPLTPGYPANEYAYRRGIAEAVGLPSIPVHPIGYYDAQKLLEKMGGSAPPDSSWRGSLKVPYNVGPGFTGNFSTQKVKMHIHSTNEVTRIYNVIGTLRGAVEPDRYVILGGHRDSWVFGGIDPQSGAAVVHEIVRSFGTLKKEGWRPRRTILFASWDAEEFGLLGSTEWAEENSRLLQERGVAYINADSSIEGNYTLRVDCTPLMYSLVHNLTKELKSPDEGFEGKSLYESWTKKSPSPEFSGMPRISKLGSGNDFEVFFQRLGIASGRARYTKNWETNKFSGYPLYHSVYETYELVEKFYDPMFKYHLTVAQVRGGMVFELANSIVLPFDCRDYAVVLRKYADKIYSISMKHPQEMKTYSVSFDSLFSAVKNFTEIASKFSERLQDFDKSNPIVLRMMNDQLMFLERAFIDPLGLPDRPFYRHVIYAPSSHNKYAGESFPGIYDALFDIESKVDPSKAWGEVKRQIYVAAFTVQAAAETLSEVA
# TEST NAME: Relative binding affinity of DUPA-NIR conjugates with respect to DUPA-FITC on 22Rv1 cells, flow cytometry
# EXPERIMENTAL CONTEXT: conjugates with variable length spacers, 1 h at 37° C., 100 nM DUPA-FITC
pKd: −log10 of the molar value.
Here the recorded pKd is given for each entry.
OBSERVATION TYPE: pKd

CHEMICAL STRUCTURE	OBSERVATION TYPE	ASSAY RESULT
CC1(C)C(/C=C/C2=C(Oc3ccc(CCNC(=O)CC[C@H](NC(=O)N[C@@H](CCC(=O)O)C(=O)O)C(=O)O)cc3)C(=C/C=C3/N(CCCCS(=O)(=O)O)c4ccc(S(=O)(=O)O)cc4C3(C)C)/CCC2)=[N+](CCCCS(=O)(=O)[O-])c2ccc(S(=O)(=O)O)cc21	pKd	6.95
CC1(C)C(/C=C/C2=C(Oc3ccc(C[C@H](NC(=O)C[C@H](NC(=O)CC[C@H](NC(=O)N[C@@H](CCC(=O)O)C(=O)O)C(=O)O)C(=O)O)C(=O)O)cc3)C(=C/C=C3/N(CCCCS(=O)(=O)O)c4ccc(S(=O)(=O)O)cc4C3(C)C)/CCC2)=[N+](CCCCS(=O)(=O)[O-])c2ccc(S(=O)(=O)O)cc21	pKd	8.01
CC1(C)C(/C=C/C2=C(Oc3ccc(C[C@H](NC(=O)CCCCCCCNC(=O)[C@H](Cc4ccccc4)NC(=O)[C@H](Cc4ccccc4)NC(=O)C[C@H](NC(=O)CC[C@H](NC(=O)N[C@@H](CCC(=O)O)C(=O)O)C(=O)O)C(=O)O)C(=O)O)cc3)C(=C/C=C3/N(CCCCS(=O)(=O)O)c4ccc(S(=O)(=O)O)cc4C3(C)C)/CCC2)=[N+](CCCCS(=O)(=O)[O-])c2ccc(S(=O)(=O)O)cc21	pKd	7.57
CC1(C)C(/C=C/C2=C(Oc3ccc(C[C@H](NC(=O)CCCCCCCNC(=O)[C@H](Cc4ccccc4)NC(=O)CC[C@H](NC(=O)N[C@@H](CCC(=O)O)C(=O)O)C(=O)O)C(=O)O)cc3)C(=C/C=C3/N(CCCCS(=O)(=O)O)c4ccc(S(=O)(=O)O)cc4C3(C)C)/CCC2)=[N+](CCCCS(=O)(=O)[O-])c2ccc(S(=O)(=O)O)cc21	pKd	7.91
CC1(C)C(/C=C/C2=C(Oc3ccc(C[C@H](NC(=O)CCCCCCCNC(=O)[C@H](Cc4ccccc4)NC(=O)[C@H](Cc4ccccc4)NC(=O)CC[C@H](NC(=O)N[C@@H](CCC(=O)O)C(=O)O)C(=O)O)C(=O)O)cc3)C(=C/C=C3/N(CCCCS(=O)(=O)O)c4ccc(S(=O)(=O)O)cc4C3(C)C)/CCC2)=[N+](CCCCS(=O)(=O)[O-])c2ccc(S(=O)(=O)O)cc21	pKd	7.45
CC1(C)C(/C=C/C2=C(Oc3ccc(C[C@H](NC(=O)CCCCCCCNC(=O)CC[C@H](NC(=O)N[C@@H](CCC(=O)O)C(=O)O)C(=O)O)C(=O)O)cc3)C(=C/C=C3/N(CCCCS(=O)(=O)O)c4ccc(S(=O)(=O)O)cc4C3(C)C)/CCC2)=[N+](CCCCS(=O)(=O)[O-])c2ccc(S(=O)(=O)O)cc21	pKd	7.82

Data provenance is patent US11484607B2.
